Test system: TDF
TEST DETAILS: H1.0 immunofluorescence intensity relative to DMSO (% of DMSO); higher = stronger H1.0 induction, active = 120 or more
DETAILS: concentration: 10 µM; 24 h
Classes to choose from: class 1 = active, class 0 = inactive

Below, 8 compounds whose answers are already recorded.
query: What did this assay record as the result for COc1cc(C(=O)c2ccc3ncccc3c2)cc(OC)c1OC ?
result: class 1

query: What did this assay record as the result for COc1cc2ncnc(Nc3ccc(O)cc3)c2cc1OC ?
result: class 0

query: What did this assay record as the result for NC(N)=NC(CCC(=O)O)C(=O)O (stereo not given) ?
result: class 0

query: What did this assay record as the result for CCCCCCCCCCC1=C(C)C(=O)C(OC)=C(OC)C1=O ?
result: class 0

query: What did this assay record as the result for COC(=O)C=Cc1cc(O)ccc1O [2,5-Dihydroxycinnamic acid methyl ester] ?
result: class 0

query: What did this assay record as the result for C=CC(C)(O)CCC1C(C)(O)CCC2C(C)(C)CCCC21C (stereo not given) ?
result: class 0

query: What did this assay record as the result for Cl.NC(=NCc1ccccc1)NC(=O)c1nc(Cl)c(N)nc1N [Benzamil hydrochloride] ?
result: class 0

query: What did this assay record as the result for Cc1ccc(C(=CCN2CCCC2)c2ccccn2)cc1.Cl [Triprolidine hydrochloride] ?
result: class 0

Further cases:
query: What did this assay record as the result for CCCCCC(CC(=O)NO)C(=O)NC(C(=O)N1CCCC1CO)C(C)C (stereo not given) ?
result: class 0

query: What did this assay record as the result for CCCNCC(O)COc1ccccc1C(=O)CCc1ccccc1.Cl [(S)-(-)-propafenone hydrochloride] ?
result: class 0

* * *

As shown below, each of these compounds has a reported H1.0 immunofluorescence intensity value.
Tested on: HCC1569
TEST DETAILS: H1.0 immunofluorescence intensity relative to DMSO (% of DMSO); higher = stronger H1.0 induction, active = 140 or more
DETAILS: concentration: 10 µM; 24 h
Note: the reply should be a number with no unit written.

Some solved cases for reference:
query: Retrieve H1.0 immunofluorescence intensity measured for CCN(CC)CCOC(=O)c1cc(Cl)c(N)cc1OC.Cl [SDZ-205,557 hydrochloride] and print it.
result: 86.8

query: Retrieve H1.0 immunofluorescence intensity measured for COc1ccc(/C=C\c2cc(OC)c(OC)c(OC)c2)cc1OP(=O)([O-])[O-].[Na+].[Na+] and print it.
result: 140

For the next question, use this compound.
query: Retrieve H1.0 immunofluorescence intensity measured for NC(CCCP(=O)(O)O)C(=O)O (racemic) and print it.
result: 93.7

* * *

System: HCC1569
TEST DETAILS: H1.0 immunofluorescence intensity relative to DMSO (% of DMSO); higher = stronger H1.0 induction, active = 140 or more
DETAILS: concentration: 10 µM; 24 h
Classes to choose from: active, inactive

Below, 5 compounds whose answers are already recorded.
query: What did this assay record as the result for NS(=O)(=O)c1ccc(-n2nc(C(F)(F)F)cc2-c2ccc(Cl)cc2)cc1 ?
result: inactive

query: What did this assay record as the result for C#Cc1cccc(Nc2ncnc3cc(OCCOC)c(OCCOC)cc23)c1 ?
result: inactive

query: What did this assay record as the result for Nc1[nH]nc2nnc(-c3c(-c4ccccc4)nn4ccccc34)cc12 ?
result: inactive

query: What did this assay record as the result for COc1cc2nc(N3CCN(C(=O)C4CCCO4)CC3)nc(N)c2cc1OC.Cl (stereo not drawn) [Terazosin hydrochloride] ?
result: inactive

query: What did this assay record as the result for CCCCS(=N)(=O)CCC(N)C(=O)O [L-Buthionine-sulfoximine] ?
result: inactive

Further cases:
query: What did this assay record as the result for Nc1cc(=O)nc(N)[nH]1 ?
result: inactive

query: What did this assay record as the result for O=C(O)CNC(=O)C(=O)O ?
result: inactive

* * *

Test system: HCC1569
TEST DETAILS: H1.0 immunofluorescence intensity relative to DMSO (% of DMSO); higher = stronger H1.0 induction, active = 140 or more
DETAILS: concentration: 10 µM; 24 h
ASSAY ENDPOINT: H1.0 immunofluorescence intensity
Note: the reply should be a number with no unit written.

query: Retrieve H1.0 immunofluorescence intensity measured for O=C(Nc1c(Cl)cncc1Cl)c1ccc(OC(F)F)c(OCC2CC2)c1 and print it.
result: 101

query: Retrieve H1.0 immunofluorescence intensity measured for Br.Br.N=C(N)SCCN [2-(2-Aminoethyl)isothiourea dihydrobromide] and print it.
result: 99.7

query: Retrieve H1.0 immunofluorescence intensity measured for CC(=O)OCC(=O)[C@@]1(O)CC[C@H]2[C@@H]3CCC4=CC(=O)C=C[C@]4(C)[C@H]3[C@@H](O)C[C@@]21C and print it.
result: 101

query: Retrieve H1.0 immunofluorescence intensity measured for Cc1ccc(CN2C(=O)S/C(=C\c3ccc(Cl)cc3)C2=O)cc1 and print it.
result: 97.2

query: Retrieve H1.0 immunofluorescence intensity measured for O=C(O)Cc1nn(Cc2nc3cc(C(F)(F)F)ccc3s2)c(=O)c2ccccc12 and print it.
result: 97.7

For the next question, use this compound.
query: Retrieve H1.0 immunofluorescence intensity measured for O=c1sn(-c2cccc3ccccc23)c(=O)n1Cc1ccccc1 and print it.
result: 98.8

* * *

System: HCC1569
TEST DETAILS: cell number relative to DMSO (% of DMSO); higher = more cells (less growth inhibition / toxicity)
DETAILS: concentration: 10 µM; 24 h
As shown below, each of these molecules has a reported cell number value.
Note: the reply should be a number with no unit written.

Some solved cases for reference:
query: Retrieve cell number measured for N#CCCc1ccc2c(c1)-c1[nH]c3ccc([N+](=O)[O-])cc3c1CC(=O)N2 and print it.
result: 63.2

query: Retrieve cell number measured for CC(=O)c1ccc(N2CCOCC2)cc1O and print it.
result: 99.1

query: Retrieve cell number measured for CC(CCc1ccc(O)cc1)NCCc1ccc(O)c(O)c1.Cl (stereo not given) [Dobutamine.HCl] and print it.
result: 104

query: Retrieve cell number measured for O=C(C=Cc1ccc(O)c(O)c1)c1ccc(OC2OC(CO)C(O)C(O)C2O)c(O)c1O (stereo not given) and print it.
result: 99.4

For the next question, use this molecule.
query: Retrieve cell number measured for CCCCCCCCCCCCCCCC(=O)NC(CN1CCOCC1)C(O)c1ccccc1 (racemic) and print it.
result: 103

* * *

Tested on: TDF
TEST DETAILS: H1.0 immunofluorescence intensity relative to DMSO (% of DMSO); higher = stronger H1.0 induction, active = 120 or more
DETAILS: concentration: 10 µM; 24 h
As shown below, each of these compounds has a reported H1.0 immunofluorescence intensity value.
Note: the reply should be a number with no unit written.

Some solved cases for reference:
query: Retrieve H1.0 immunofluorescence intensity measured for CCCCCCCCCCCCCCCC(=O)NCC(COP(=O)([O-])OCC[N+](C)(C)C)OCC (racemic) and print it.
result: 97.5

query: Retrieve H1.0 immunofluorescence intensity measured for CC1OC(OCC2OC(Oc3cc(O)c4c(c3)OC(c3ccc(O)c(O)c3)CC4=O)C(O)C(O)C2O)C(O)C(O)C1O (stereo not given) and print it.
result: 89

query: Retrieve H1.0 immunofluorescence intensity measured for CCOC(=O)Oc1c(OC)cc(C(=O)OC2CC3CN4CCc5c([nH]c6cc(OC)ccc56)C4CC3C(C(=O)OC)C2OC)cc1OC (stereo not given) and print it.
result: 96.8

query: Retrieve H1.0 immunofluorescence intensity measured for Cc1cc2c(OCC(CNC(C)(C)C)OC(=O)c3ccccc3)cccc2[nH]1 (stereo not given) and print it.
result: 99

For the next question, use this compound.
query: Retrieve H1.0 immunofluorescence intensity measured for CN1CCN(CC(=O)N2c3ccccc3C(=O)Nc3cccnc32)CC1.Cl.Cl [Pirenzepine.2HCl] and print it.
result: 90.5

* * *

As shown below, each of these compounds has a reported H1.0 immunofluorescence intensity value.
Test system: TDF
TEST DETAILS: H1.0 immunofluorescence intensity relative to DMSO (% of DMSO); higher = stronger H1.0 induction, active = 120 or more
DETAILS: concentration: 10 µM; 24 h
Note: the reply should be a number with no unit written.

query: Retrieve H1.0 immunofluorescence intensity measured for CCCCCCCCCCCCCC=CC(O)C(CO)NC(=O)CCCCCCC (configuration not stated) [C8 Ceramide] and print it.
result: 101

query: Retrieve H1.0 immunofluorescence intensity measured for CN1CCCC1c1cccnc1.O=C(O)C(O)C(O)C(=O)O.O=C(O)C(O)C(O)C(=O)O (single isomer, unassigned; (-)) [(-)-Nicotine hydrogen tartrate salt] and print it.
result: 90

* * *

As shown below, each of these compounds has a reported H1.0 immunofluorescence intensity value.
Test system: HCC1569
TEST DETAILS: H1.0 immunofluorescence intensity relative to DMSO (% of DMSO); higher = stronger H1.0 induction, active = 140 or more
DETAILS: concentration: 10 µM; 24 h
Note: the reply should be a number with no unit written.

Some solved cases for reference:
query: Retrieve H1.0 immunofluorescence intensity measured for CC(=O)NC(CSCC=C(C)CCC=C(C)CCC=C(C)CCC=C(C)C)C(=O)O (centres undefined) and print it.
result: 95.9

query: Retrieve H1.0 immunofluorescence intensity measured for CC[C@H](C)C(=O)O[C@H]1C[C@H](O)C=C2C=C[C@H](C)[C@H](CC[C@@H](O)C[C@@H](O)CC(=O)[O-])[C@H]21.[Na+] and print it.
result: 98.1

query: Retrieve H1.0 immunofluorescence intensity measured for COc1ccc(-n2c(SCC#N)nc3sc4c(c3c2=O)CCCC4)cc1 and print it.
result: 108

For the next question, use this compound.
query: Retrieve H1.0 immunofluorescence intensity measured for O=c1c(O)c(-c2ccccc2O)oc2cc(O)cc(O)c12 and print it.
result: 87.7
